Task for the reader: assign each of the following binders its reported CD28 scFv signal.
- TARGET OR TEST SYSTEM: T1, Anti-CD28 scFv (VH - linker 1 - VL) (biotinylated (site not stated))
- T1 construct: Captured as biotinylated scFv on neutravidin plates in the panning ELISA
- T1 sequence (scFv, as listed by the source): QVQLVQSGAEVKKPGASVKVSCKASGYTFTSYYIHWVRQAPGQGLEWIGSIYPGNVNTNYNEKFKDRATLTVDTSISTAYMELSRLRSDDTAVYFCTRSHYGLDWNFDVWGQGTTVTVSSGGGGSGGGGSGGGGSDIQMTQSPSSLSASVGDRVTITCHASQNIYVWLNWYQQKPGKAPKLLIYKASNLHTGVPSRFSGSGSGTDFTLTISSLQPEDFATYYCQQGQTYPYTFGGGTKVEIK
- ASSAY PROCEDURE: phage ELISA: biotinylated anti-CD28 scFv on neutravidin plate, clonal phage supernatant, anti-M13-HRP detection;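 also: competition format: before phage supernatant was added, wells were preincubated with soluble CD28 protein or with blocking buffer only, and phage were added without an intervening wash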
Numbers only.

Guide cases for CD28 scFv signal, answers given:
> print(dat)
                       binder  test.result
1  TDWCPRDMWYLCFN [Phage-396]         2.11
2  LHWCPITMWTYCYY [Phage-409]         1.21
3  IDWCPRYMWHECFF [Phage-410]         1.18

Count: 5. Required value per item: CD28 scFv signal.
1. MDWCPRHMWHECFH [Phage-402]
2. MDWCPMYMWHKCFH [Phage-415]
3. MNWCPIHMWNQCFA [Phage-407]
4. QHWCPRDMWNDCYA [Phage-412]
5. MDWCPRAMWDYCFY [Phage-397]

1.81
0.987
1.37
1.08
2.11
